Ref: patent US20230192890A1

measured on: T1, Ala mutant SEQ ID NO: 35 (human)
T1 peptide: EENMDDQWAQDEMEIGY
protocol: ELISA, peptide on plate (10 ug/mL)
quantity kind: absorbance 490 nm/630 nm (OD)
Report only the number, with the unit OD understood.

Known results for binders:
binder	quantity unit	absorbance 490 nm/630 nm
E9 (antibody, IgG1, V domains shown, Chicken variable regions in mouse chimeric antibody (IgG1) expression vectors; also called anti-PAD4 antibody E9; A11 etc) VH: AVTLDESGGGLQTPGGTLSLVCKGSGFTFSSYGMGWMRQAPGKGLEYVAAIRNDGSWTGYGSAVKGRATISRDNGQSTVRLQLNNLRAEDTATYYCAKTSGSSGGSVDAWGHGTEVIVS VL: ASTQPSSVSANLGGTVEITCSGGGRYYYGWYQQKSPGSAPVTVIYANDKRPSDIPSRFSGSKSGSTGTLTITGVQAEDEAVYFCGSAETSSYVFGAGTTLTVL	OD	0.017
H7 (antibody, IgG1, V domains shown, Chicken variable regions in mouse chimeric antibody (IgG1) expression vectors; also called anti-PAD4 antibody H7; A11 etc) VH: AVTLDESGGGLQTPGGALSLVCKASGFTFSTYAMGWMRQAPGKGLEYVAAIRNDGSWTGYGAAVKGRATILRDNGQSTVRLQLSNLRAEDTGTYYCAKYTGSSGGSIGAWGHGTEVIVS VL: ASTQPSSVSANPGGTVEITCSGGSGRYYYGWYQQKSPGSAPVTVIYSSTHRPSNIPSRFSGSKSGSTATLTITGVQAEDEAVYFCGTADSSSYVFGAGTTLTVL	OD	0.065

Next binder, please.
**Q:** May I ask what absorbance 490 nm/630 nm has been recorded for G8 (antibody, IgG1, V domains shown, Chicken variable regions in mouse chimeric antibody (IgG1) expression vectors; also called anti-PAD4 antibody G8; A11 etc) VH: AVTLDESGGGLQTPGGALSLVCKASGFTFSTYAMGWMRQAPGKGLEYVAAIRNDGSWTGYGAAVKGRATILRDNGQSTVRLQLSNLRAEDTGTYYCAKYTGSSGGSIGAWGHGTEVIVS VL: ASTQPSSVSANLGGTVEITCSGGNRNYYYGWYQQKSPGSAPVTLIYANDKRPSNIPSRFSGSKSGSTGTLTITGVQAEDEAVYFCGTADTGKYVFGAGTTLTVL ?
**A:** 0.233
